Target: 19 kD truncated collagenase-1 (MMP-1) (Homo sapiens)
Construct: 19 kD truncated collagenase-1 (MMP-1)
Sequence (P03956 101-269 limits assumed): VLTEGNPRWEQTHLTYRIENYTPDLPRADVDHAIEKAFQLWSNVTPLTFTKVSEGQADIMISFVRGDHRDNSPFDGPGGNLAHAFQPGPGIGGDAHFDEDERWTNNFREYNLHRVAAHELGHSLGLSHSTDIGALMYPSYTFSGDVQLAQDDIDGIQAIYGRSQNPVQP
Test: Matrix metalloprotease inhibition, fluorogenic substrate: collagenase-1
endpoint: Ki

// solved cases for Ki follow
CCC[C@@H]([C@@H](CC1CCCCC1)C(=O)N[C@@H](CCCNC(N)=N[N+](=O)[O-])C(=O)Nc1nccs1)N(O)C=O [Example 2] : 50 to 250 nM
CC(C)C[C@@H](C(=O)N[C@H](C(=O)Nc1nccs1)[C@H](C)CCNC(N)=N[N+](=O)[O-])[C@H](C)N(O)C=O [Example 3] : < 50 nM
NC(=N[N+](=O)[O-])NCCC[C@H](NC(=O)[C@H](CC1CCCCC1)[C@H](CCC(F)(F)F)N(O)C=O)C(=O)Nc1nccs1 [Example 6] : 50 to 250 nM

Moving on to the next compound.
Q) Consider the compound CC1CCC(C[C@@H](C(=O)N[C@@H](CCCNC(N)=N[N+](=O)[O-])C(=O)Nc2nccs2)[C@H](C(C)C)N(O)C=O)CC1 (stereo partly shown) [Example 8] and give its measured Ki.
A) 50 to 250 nM
